Molar enthalpy of transition or fusion for assorted compounds
Assay details: Molar enthalpy of transition or fusion
Recorded conditions: Crystal; DSC
Reply numerically in kcal/mol, unit not repeated.

Below, each entry is followed by its recorded Molar enthalpy of transition or fusion result.
>>> print(df.to_string())
    compound_string                       reported_endpoint         u  value_reported
0  CCCCCCCCCCC(C)=O  Molar enthalpy of transition or fusion  kcal/mol            9.44
1     CCCCCCCCCCCCO  Molar enthalpy of transition or fusion  kcal/mol            9.02

Now for another entry.
Query: Record request: Molar enthalpy of transition or fusion value, item CCCCCCCCCCCC(C)=O
Response: 10.5

###

Recorded conditions: Crystal; DTA
Mark not satisfied for Normal melting temperature values under 10 °C, and satisfied for everything at or above.

In [3]: df
Out[3]:
    compound_string  assigned_category
0   CCCCCCCCCC(C)=O          satisfied
1     CCCCCCCC(C)=O      not satisfied
2  CCCCCCCCCCC(C)=O          satisfied
3       CCCCCC(C)=O      not satisfied

Query: Can CCCCCCCCCCCC(C)=O be said to have Normal melting temperature at or above 10 °C?
Response: satisfied

###

Recorded conditions: Crystal
Normal melting temperature for assorted compounds
Reply numerically in °C, unit not repeated.

                         compound  value_reported
0    CCCCCCCCCCCCO [dodecan-1-ol]            23.5
1      CCCCCCCC(C)=O [2-nonanone]            -9.8
2  CCCCCCCCCC(C)=O [2-undecanone]            11.7

Query: Record request: Normal melting temperature value, item CCCCCCCCCCC(C)=O [2-dodecanone]
Response: 21

Query: Record request: Normal melting temperature value, item CCCCCC(C)=O [2-heptanone]
Response: -36

Query: Record request: Normal melting temperature value, item CCCCCCCCCCCC(C)=O [2-tridecanone]
Response: 27.7

Query: Record request: Normal melting temperature value, item CCCCCCCCO [octan-1-ol]
Response: -14.5

Query: Record request: Normal melting temperature value, item CCCCCCCCCCO [decan-1-ol]
Response: 6.4

###

Assay details: Molar enthalpy of transition or fusion
Recorded conditions: Crystal; DSC
Molar enthalpy of transition or fusion for assorted molecules
Reply numerically in kcal/mol, unit not repeated.

Below, each entry is followed by its recorded Molar enthalpy of transition or fusion result.
                    molecule         u  value_reported
0     CCCCCCCCO [octan-1-ol]  kcal/mol            5.66
1  CCCCCC(C)=O [2-heptanone]  kcal/mol            4.56
2   CCCCCCCCCCO [decan-1-ol]  kcal/mol             7.5

Now for another entry.
Query: Record request: Molar enthalpy of transition or fusion value, item CCCCCCCC(C)=O [2-nonanone]
Response: 6.54
